target: BoNT/B2 (Clostridium botulinum); assay: flow cytometry, yeast-displayed scFv, soluble toxin
outcome.measure: Kd (nM)
Give the quantity in nM, number only.

| binder | Kd / nM |
| --- | --- |
| B11E8 scFv (scFv) scFv: EVQLVQSGGGVVQPGRSLRLSCAASGFIFRTYGMHWVRQAPGKGLEWVAFVSSDGNNKFYSDSVKGRFTISRDNAKNTLYLQMNSLETEDTAMYYCAKDRYPIDCSGGSCFSYGMDVWGQGTTVTVSSGGGGSGGGGSGGGGSEIVLTQSPATLSVSPGERATLSCRASQSVSKFLAWYQQKRGQAPRLLIYGASTRATGIPARFSGSGSGTEFALTISSLQSEDFADYYCQQYDNWPITFGQGTRLEIK | 0.189 |
| B11 scFv (scFv) scFv: QVQLLQSAGGVVQPGRSLRLSCAASGFIFRTYGMHWVRQAPGKGLEWVAFVSSDGNNKFYSDSVKGRFTIPRDNAKNTLYLQMNSLETEDTAVYYCAKDRYPIDCSGGSCFSYGMDVWGQGTTVTVSSGGGGSGGGGSGGGGSDIVMTQSPSTLSASVGDRVTVTCRASQSINSWLAWYQQKPGKAPKLLIYEASSLESGVPSRFSGSGSGTEFTLTISSLQPDDFATYYCQQYDSYWLTFGGGTKVEIK | 2.11 |
| 2B30 scFv (scFv) scFv: EVQLVESGGGVVQPGRSLRLSCAASGFTFRRNAIHWVRQAPGKGLEWVAVISYDGVNKYYAASVKGRFAISRDNAKNTLFLQMNSLRPEDSAIYYCARDVSEYGDYVGHFDYWGQGTLVTVSSGGGGSGGGGSGGGGSSYELMQLPSASGTPGQRVSISCSGSSSNIGSNPVNWYQQLPGTAPKLLIYSNNHRPSGVPDRFSGSKSGTSASLAISGLQSEDEADYYCAAWDGSLNGHVVFGGGTKLTVL | 0.19 |

// returns reported Kd for input B6 scFv (scFv) scFv: QVQLVQSGAEVKKPGESLVISCKASGDKDTFTSFWIAWVRQMPGKGLEWMGIIYAGDSDTRYSPSFQGHVNISVDRSTNTAYLQWSSLKASDTAMYYCARHDSRYKYFYFGMDVWGQGTTVTVSSGGGGSGGGGSGGGGSDVVMTQSPSSLSASVGDRITITCQAGQDISNFLNWYQQKPGKAPKLLIRDASNLETGVPSRFSGGGSGTHFTFTISSLHPEDIATYFCQQYDNLPYTFGQGTKLEIK
1.77
